- target: plasma purified human complement protein C3 (human) (UniProt P01024)
- Sequence (P01024 23-667, chain 1 of 2): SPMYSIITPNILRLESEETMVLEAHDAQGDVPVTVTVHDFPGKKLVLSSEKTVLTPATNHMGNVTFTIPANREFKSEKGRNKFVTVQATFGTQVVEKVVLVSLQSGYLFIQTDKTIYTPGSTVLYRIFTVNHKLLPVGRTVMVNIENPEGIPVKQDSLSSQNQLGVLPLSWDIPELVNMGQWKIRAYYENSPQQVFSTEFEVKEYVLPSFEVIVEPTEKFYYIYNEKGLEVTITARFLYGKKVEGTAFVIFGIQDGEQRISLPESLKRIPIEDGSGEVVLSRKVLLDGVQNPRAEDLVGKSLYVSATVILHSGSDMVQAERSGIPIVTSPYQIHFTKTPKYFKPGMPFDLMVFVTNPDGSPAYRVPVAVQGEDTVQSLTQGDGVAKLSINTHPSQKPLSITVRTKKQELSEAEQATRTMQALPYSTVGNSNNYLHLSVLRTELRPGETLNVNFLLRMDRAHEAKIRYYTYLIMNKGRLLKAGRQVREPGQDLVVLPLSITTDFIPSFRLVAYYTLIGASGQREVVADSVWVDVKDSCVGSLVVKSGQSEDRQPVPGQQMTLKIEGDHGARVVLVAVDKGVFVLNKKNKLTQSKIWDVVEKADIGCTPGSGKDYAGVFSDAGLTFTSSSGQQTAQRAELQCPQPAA
- Sequence (P01024 672-1663, chain 2 of 2): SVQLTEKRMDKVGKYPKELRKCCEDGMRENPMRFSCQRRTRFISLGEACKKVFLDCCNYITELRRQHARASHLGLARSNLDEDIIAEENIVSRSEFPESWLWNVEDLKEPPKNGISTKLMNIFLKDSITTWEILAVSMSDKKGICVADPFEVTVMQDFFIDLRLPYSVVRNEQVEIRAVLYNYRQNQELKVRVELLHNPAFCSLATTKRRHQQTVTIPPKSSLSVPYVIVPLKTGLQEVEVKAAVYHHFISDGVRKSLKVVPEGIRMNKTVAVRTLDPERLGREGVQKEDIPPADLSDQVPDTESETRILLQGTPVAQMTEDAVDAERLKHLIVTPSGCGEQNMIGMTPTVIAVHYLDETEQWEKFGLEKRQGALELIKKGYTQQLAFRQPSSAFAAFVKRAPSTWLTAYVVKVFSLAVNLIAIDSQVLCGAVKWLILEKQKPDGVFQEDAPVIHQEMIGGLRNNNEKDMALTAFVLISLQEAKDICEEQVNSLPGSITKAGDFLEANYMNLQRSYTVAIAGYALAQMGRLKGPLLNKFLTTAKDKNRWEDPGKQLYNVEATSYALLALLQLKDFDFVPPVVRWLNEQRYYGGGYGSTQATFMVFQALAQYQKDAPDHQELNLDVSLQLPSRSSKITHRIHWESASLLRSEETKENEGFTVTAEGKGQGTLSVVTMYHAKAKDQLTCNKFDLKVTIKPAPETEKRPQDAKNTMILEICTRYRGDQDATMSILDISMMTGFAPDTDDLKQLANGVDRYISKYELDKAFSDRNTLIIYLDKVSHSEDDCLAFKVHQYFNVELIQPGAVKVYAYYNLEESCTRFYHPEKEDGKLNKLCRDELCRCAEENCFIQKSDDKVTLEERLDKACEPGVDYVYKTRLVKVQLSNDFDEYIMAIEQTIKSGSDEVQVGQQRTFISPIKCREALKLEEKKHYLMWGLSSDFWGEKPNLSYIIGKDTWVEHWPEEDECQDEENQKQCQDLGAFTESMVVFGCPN
- protocolText: cell-based or functional assay
Below, each of the binders is paired with its reported log10 of EC50 hC3 cleavage value.
Use the decimal logarithm of EC50 hC3 cleavage (nM).

MTSP-1 protease domain I41D/F97R/F99L/C122S/G151Q/Q175R/Q192V/D217L (enzyme) VVGGTDADEGEWPWQVSLHALGQGHDCGASLISPNWLVSAAHCYIDDRGFRYSDPTQWTAFLGLHDQSQRSAPGVQERRLKRIISHPFFNDRTLDYDIALLELEKPAEYSSMVRPISLPDASHVFPAGKAIWVTGWGHTQYGGTQALILQKGEIRVINQTTCENLLPQRITPRMMCVGFLSGGVDSCVGDSGGPLSSVEADGRIFQAGVVSWGLGCAQRNKPGVYTRLPLFRDWIKENTGV = 1.94
MTSP-1 protease domain Q38K/I41D/Y60gG/F99L/C122S/G151N (enzyme) VVGGTDADEGEWPWQVSLHALGKGHDCGASLISPNWLVSAAHCYIDDRGFRGSDPTQWTAFLGLHDQSQRSAPGVQERRLKRIISHPFFNDFTLDYDIALLELEKPAEYSSMVRPISLPDASHVFPAGKAIWVTGWGHTQYGGTNALILQKGEIRVINQTTCENLLPQQITPRMMCVGFLSGGVDSCQGDSGGPLSSVEADGRIFQAGVVSWGDGCAQRNKPGVYTRLPLFRDWIKENTGV = 1.72
MTSP-1 protease domain I41G/F97V/F99L/C122S/G151N/Q192T/D217V (enzyme) VVGGTDADEGEWPWQVSLHALGQGHGCGASLISPNWLVSAAHCYIDDRGFRYSDPTQWTAFLGLHDQSQRSAPGVQERRLKRIISHPFFNDVTLDYDIALLELEKPAEYSSMVRPISLPDASHVFPAGKAIWVTGWGHTQYGGTNALILQKGEIRVINQTTCENLLPQQITPRMMCVGFLSGGVDSCTGDSGGPLSSVEADGRIFQAGVVSWGVGCAQRNKPGVYTRLPLFRDWIKENTGV = 1.48

Answer with the recorded log10 of EC50 hC3 cleavage for the binder listed here: MTSP-1 protease domain Q38H/I41S/D96Q/ins97aT/C122S/G151N/Q192A (enzyme) VVGGTDADEGEWPWQVSLHALGHGHSCGASLISPNWLVSAAHCYIDDRGFRYSDPTQWTAFLGLHDQSQRSAPGVQERRLKRIISHPFFNQFTTFDYDIALLELEKPAEYSSMVRPISLPDASHVFPAGKAIWVTGWGHTQYGGTNALILQKGEIRVINQTTCENLLPQQITPRMMCVGFLSGGVDSCAGDSGGPLSSVEADGRIFQAGVVSWGDGCAQRNKPGVYTRLPLFRDWIKENTGV 1.25

Name the recorded log10 of EC50 hC3 cleavage of the binder listed here: MTSP-1 protease domain I41S/F99M/C122S/G151N/Q175P/Q192S (enzyme) VVGGTDADEGEWPWQVSLHALGQGHSCGASLISPNWLVSAAHCYIDDRGFRYSDPTQWTAFLGLHDQSQRSAPGVQERRLKRIISHPFFNDFTMDYDIALLELEKPAEYSSMVRPISLPDASHVFPAGKAIWVTGWGHTQYGGTNALILQKGEIRVINQTTCENLLPQPITPRMMCVGFLSGGVDSCSGDSGGPLSSVEADGRIFQAGVVSWGDGCAQRNKPGVYTRLPLFRDWIKENTGV 2.14

Tell us which log10 of EC50 hC3 cleavage value is on record for MTSP-1 protease domain Q38H/I41S/D60bT/F60eT/ins97aV/F97D/T98P/F99L/C122S/H143Q/G151Q/Q175L/Q192G (enzyme) VVGGTDADEGEWPWQVSLHALGHGHSCGASLISPNWLVSAAHCYIDTRGTRYSDPTQWTAFLGLHDQSQRSAPGVQERRLKRIISHPFFNDDVPLDYDIALLELEKPAEYSSMVRPISLPDASHVFPAGKAIWVTGWGQTQYGGTQALILQKGEIRVINQTTCENLLPQLITPRMMCVGFLSGGVDSCGGDSGGPLSSVEADGRIFQAGVVSWGDGCAQRNKPGVYTRLPLFRDWIKENTGV 0.83

Answer with reported log10 of EC50 hC3 cleavage of MTSP-1 protease domain Q38H/I41S/ins97aV/A112V/C122S/Q192A/Q209L (enzyme) VVGGTDADEGEWPWQVSLHALGHGHSCGASLISPNWLVSAAHCYIDDRGFRYSDPTQWTAFLGLHDQSQRSAPGVQERRLKRIISHPFFNDFVTFDYDIALLELEKPVEYSSMVRPISLPDASHVFPAGKAIWVTGWGHTQYGGTGALILQKGEIRVINQTTCENLLPQQITPRMMCVGFLSGGVDSCAGDSGGPLSSVEADGRIFLAGVVSWGDGCAQRNKPGVYTRLPLFRDWIKENTGV 1.04
